# System: SK-MEL-5 melanoma
# testProtocol: NCI tumour cell line growth inhibition, 48 h
propertyMeasured: TGI (µM)
Your answer should be a plain number; it is taken to be in µM.

[
  {
    "givenSmiles": "O=C(/C=C/c1ccc2c(c1)OCO2)c1ccccc(=O)c1O",
    "valueUnit": "µM",
    "endpointValue": 23
  },
  {
    "givenSmiles": "O=C(CN1CCCC1)Nc1ccc2sc3ccccc3c(=O)c2n1",
    "valueUnit": "µM",
    "endpointValue": 53.4
  }
]

## Task I would be grateful if you could share the reported TGI for Cn1cc(-c2nc(-c3cn(C)c4ncccc34)cs2)c2cc(F)ccc21 .
## Result 3.37

## Task Param item: CCOC(=O)c1c2c(n3cccc(F)c13)C(=O)c1ncccc1C2=O
## Result 3.22

## Task Consider next the compound O=C(Nc1ncc(Cc2ccc(Cl)cc2)s1)c1ccc2c(c1)OCCO2 in the same way.
## Result 1.42

Reference source: PubChem BioAssay (NCI)
